Molecular target: human PPARγ2 (Homo sapiens, UniProt P37231)
Construct: the amino acids 182 to 505 of human PPARγ2
Sequence (P37231 182-505): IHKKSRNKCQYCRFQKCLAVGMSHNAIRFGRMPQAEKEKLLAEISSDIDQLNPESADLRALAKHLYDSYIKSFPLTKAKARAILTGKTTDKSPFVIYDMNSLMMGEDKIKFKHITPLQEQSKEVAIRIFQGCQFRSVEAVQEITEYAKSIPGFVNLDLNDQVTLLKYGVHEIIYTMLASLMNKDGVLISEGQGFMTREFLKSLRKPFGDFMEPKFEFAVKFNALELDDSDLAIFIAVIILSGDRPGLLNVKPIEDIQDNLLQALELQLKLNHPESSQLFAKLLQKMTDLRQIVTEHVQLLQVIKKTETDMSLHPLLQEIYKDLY
Assay: PPARγ activation activity, Gal4-PPARγ2 LBD luciferase transfection assay in COST cells
Conditions: Gal4-human PPARγ2 LBD luciferase reporter, 16 hours, rosiglitazone = 100%
Measured EC50, listed per entry for reference.
Your answer is read as nM, so omit the unit and give the number.

# smi, observed property, value measured
rows = [
    ("CCCCc1nc(C2CCCCC2)n(-c2ncc(OCC)cn2)c(=O)c1Cc1ccc(-c2ccccc2S(=O)(=O)NC(=O)C2CC2)cc1", "EC50", 510),
    ("CCCCc1nc(CC)n(-c2ncc(OCC)cn2)c(=O)c1Cc1ccc(-c2ccccc2S(=O)(=O)NC(=O)C2CC2)cc1", "EC50", 2790),
    ("CCCCc1nc(C2CC2)n(-c2ncc(OCC)cn2)c(=O)c1Cc1ccc(-c2ccccc2S(=O)(=O)NC(=O)C2CC2)cc1", "EC50", 2350),
]

Attention now shifts to the item below.
Please supply the value of reported EC50 for the item CCCCc1nc(C2CCC2)n(-c2ncc(OCC)cn2)c(=O)c1Cc1ccc(-c2ccccc2S(=O)(=O)NC(=O)C2CC2)cc1
960

Each recorded value in this set is attributed to patent US20120122906A1.
